EXPERIMENTAL_TARGET: c-kit (Homo sapiens, UniProt P10721)
Construct: MO7e (human megakaryocytic leukemia cell line) which had been arrested for 20 hr; endogenous in cells; host or cells: MO7e human megakaryocytic leukemia cell line
Sequence (P10721 26-976): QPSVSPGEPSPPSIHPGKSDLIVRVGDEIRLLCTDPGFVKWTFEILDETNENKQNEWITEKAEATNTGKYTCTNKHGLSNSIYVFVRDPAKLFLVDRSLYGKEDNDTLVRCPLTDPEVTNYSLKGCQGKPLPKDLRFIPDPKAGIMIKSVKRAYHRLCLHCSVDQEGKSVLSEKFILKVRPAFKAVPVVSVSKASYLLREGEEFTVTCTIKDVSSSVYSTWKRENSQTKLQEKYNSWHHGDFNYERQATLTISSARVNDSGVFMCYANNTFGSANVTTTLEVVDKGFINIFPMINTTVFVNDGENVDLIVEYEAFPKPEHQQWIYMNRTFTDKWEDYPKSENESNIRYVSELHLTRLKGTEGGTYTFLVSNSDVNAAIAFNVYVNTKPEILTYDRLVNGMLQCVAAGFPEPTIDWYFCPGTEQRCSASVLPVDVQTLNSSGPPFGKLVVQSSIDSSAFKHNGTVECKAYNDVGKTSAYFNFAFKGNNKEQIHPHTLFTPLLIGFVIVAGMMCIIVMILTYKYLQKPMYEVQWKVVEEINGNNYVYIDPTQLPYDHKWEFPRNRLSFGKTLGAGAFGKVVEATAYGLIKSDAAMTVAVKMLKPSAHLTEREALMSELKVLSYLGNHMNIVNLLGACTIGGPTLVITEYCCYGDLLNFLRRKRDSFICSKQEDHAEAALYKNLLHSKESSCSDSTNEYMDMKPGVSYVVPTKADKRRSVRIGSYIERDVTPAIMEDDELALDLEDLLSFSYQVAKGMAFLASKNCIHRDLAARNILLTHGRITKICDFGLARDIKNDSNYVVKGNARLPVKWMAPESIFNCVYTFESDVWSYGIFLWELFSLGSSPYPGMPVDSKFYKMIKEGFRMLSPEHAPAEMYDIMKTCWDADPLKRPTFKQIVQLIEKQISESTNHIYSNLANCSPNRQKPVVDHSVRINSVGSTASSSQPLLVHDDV
PROCEDURE_SUMMARY: Inhibitory activity against c-kit autophosphorylation (MO7e cells, h-SCF)
Format: cell-based
TEST_SETTINGS: MO7e cells, h-SCF stimulation; read-out: c-kit IC50
pIC50: −log10 of the molar value.
PROPERTY_LABEL: pIC50

Solved entries (count: 5):
COMPOUND	DATA_VALUE
COc1cc2nccc(Oc3ccc(NC(=S)NC(=O)c4cccc(F)c4)cc3Cl)c2cc1OC [Example 948]	6.08
CCN(C(=S)NC(=O)Cc1ccccc1)c1ccc(Oc2ccnc3cc(OC)c(OC)cc23)cc1 [Example 1149]	6.82
CCCC(C)C(=O)NC(=S)Nc1ccc(Oc2ncnc3cc(OC)c(OC)cc23)cc1 (centres unmarked) [Example 1201]	6.35
COc1cc2nccc(Oc3ccc(NC(=S)NC(=O)c4ccc([N+](=O)[O-])cc4)cc3F)c2cc1OC [Example 975]	6.54
COc1cc2nccc(Oc3ccc(NC(=S)NC(=O)c4c(F)cccc4F)cc3)c2cc1OC [Example 1007]	6.21

a = COc1cc2nccc(Oc3ccc(NC(=S)NC(=O)c4cc(C)ccc4C)cc3)c2cc1OC [Example 1004]
b = COc1cc2nccc(Oc3ccc(NC(=S)NC(=O)c4ccc(C)s4)cc3)c2cc1OC [Example 1146]
c = COc1cc2nccc(Oc3ccc(NCCOc4ccccc4O)cc3)c2cc1OC [Example 872]
d = COc1cc2nccc(Oc3ccc(NC(=S)NC(=O)CCSC)cc3)c2cc1OC [Example 1135]
Query: Order the records by pIC50, with each subsequent value no larger than the one before. Respond with the label ranking, as requested.
Result: c, d, b, a

P = COc1cccc(C(=O)NC(=S)Nc2ccc(Oc3ccnc4cc(OC)c(OC)cc34)cc2)c1 [Example 933]
Q = COc1cc2nccc(Oc3ccc(NC(=S)NC(=O)Cc4ccccc4)cc3Cl)c2cc1OC [Example 1147]
R = COc1cc2nccc(Oc3ccc(NC(=S)NC(=O)N4CCOCC4)cc3)c2cc1OC [Example 1045]
Query: Sort ascending by pIC50. Respond with the label ranking, as requested.
Result: P, R, Q
(P: 6.31, R: 6.71, Q: 6.98)

a = COc1cc2nccc(Oc3ccc(NC(=S)NC(=O)c4ccc(CCl)cc4)cc3F)c2cc1OC [Example 1000]
b = COc1cc2nccc(Oc3ccc(NC(=S)NC(=O)N4CCCC4)cc3Cl)c2cc1OC [Example 1051]
c = COc1cc2nccc(Oc3ccc(SCCOc4ccc(Cl)cc4)cc3)c2cc1OC [Example 818]
d = COc1cc2nccc(Oc3ccc(NC(=S)NC(=O)c4cccc(C(F)(F)F)c4)cc3Cl)c2cc1OC [Example 951]
e = COc1cc2nccc(Oc3ccc(NCCOc4cccc(Cl)c4)cc3)c2cc1OC [Example 860]
Query: Sort ascending by pIC50. Respond with the label ranking, as requested.
Result: a, b, c, d, e
(a: 6.11, b: 6.38, c: 6.69, d: 6.91, e: 7.12)

1 = COc1cc2nccc(Oc3ccc(NC(=S)NC(=O)c4ccccc4C(F)(F)F)cc3F)c2cc1OC [Example 917]
2 = COc1cc2ncnc(Oc3ccc(NC(=S)NC(=O)c4ccccc4C)c(N4CCOCC4)c3)c2cc1OC [Example 1151]
Query: // pick larger pIC50 from pair: 1 vs 2 Provide the label of your selected option as the answer.
Result: 2
(2: 6.84, 1: 6.26)

A = COc1cc2nccc(Oc3ccc(NC(=S)NC(=O)c4ccc(Cl)cc4Cl)cc3Cl)c2cc1OC [Example 1114]
B = COc1cc2nccc(Oc3ccc(NCCOc4c(C)cccc4C)cc3C)c2cc1OC [Example 881]
C = COc1cc2nccc(Oc3ccc(NCCOc4ccccc4C)cc3)c2cc1OC [Example 852]
Query: Sort ascending by pIC50. Respond with the label ranking, as requested.
Result: A, B, C
(A: 6.17, B: 6.46, C: 6.75)

A = COc1cc2ncnc(Oc3ccc(NC(=S)NC(=O)C4CCCC4)cc3)c2cc1OC [Example 1183]
B = COc1cc2nccc(Oc3ccc(NC(=S)NC(=O)CCCCl)cc3Cl)c2cc1OC [Example 1198]
Query: // pick larger pIC50 from pair: A vs B Provide the label of your selected option as the answer.
Result: B

1 = COc1cc2nccc(Oc3ccc(NC(=S)NC(=O)c4ccc(Cl)cc4)cc3C)c2cc1OC [Example 1111]
2 = COc1cc2nccc(Oc3ccc(NC(=S)NC(=O)c4cc(Cl)cc(Cl)c4)cc3)c2cc1OC [Example 1009]
Query: Between 1 and 2 , which one has the lower reported pIC50 value? Provide the label of your selected option as the answer.
Result: 1
(1: 6.39, 2: 6.61)

a = COc1cc2nccc(Oc3ccc(NC(=S)NC(=O)c4ccccc4C(F)(F)F)cc3)c2cc1OC [Example 902]
b = COc1cc2nccc(Oc3ccc(NC(=S)NC(=O)c4cc(C)oc4C)c(F)c3)c2cc1OC [Example 1037]
Query: Between a and b , which one has the lower reported pIC50 value? Provide the label of your selected option as the answer.
Result: b

====

EXPERIMENTAL_TARGET: PDGF-Ra (Homo sapiens, UniProt P16234)
Construct: host or cells: G-292 human osteosarcoma cells
Sequence (P16234 24-1089): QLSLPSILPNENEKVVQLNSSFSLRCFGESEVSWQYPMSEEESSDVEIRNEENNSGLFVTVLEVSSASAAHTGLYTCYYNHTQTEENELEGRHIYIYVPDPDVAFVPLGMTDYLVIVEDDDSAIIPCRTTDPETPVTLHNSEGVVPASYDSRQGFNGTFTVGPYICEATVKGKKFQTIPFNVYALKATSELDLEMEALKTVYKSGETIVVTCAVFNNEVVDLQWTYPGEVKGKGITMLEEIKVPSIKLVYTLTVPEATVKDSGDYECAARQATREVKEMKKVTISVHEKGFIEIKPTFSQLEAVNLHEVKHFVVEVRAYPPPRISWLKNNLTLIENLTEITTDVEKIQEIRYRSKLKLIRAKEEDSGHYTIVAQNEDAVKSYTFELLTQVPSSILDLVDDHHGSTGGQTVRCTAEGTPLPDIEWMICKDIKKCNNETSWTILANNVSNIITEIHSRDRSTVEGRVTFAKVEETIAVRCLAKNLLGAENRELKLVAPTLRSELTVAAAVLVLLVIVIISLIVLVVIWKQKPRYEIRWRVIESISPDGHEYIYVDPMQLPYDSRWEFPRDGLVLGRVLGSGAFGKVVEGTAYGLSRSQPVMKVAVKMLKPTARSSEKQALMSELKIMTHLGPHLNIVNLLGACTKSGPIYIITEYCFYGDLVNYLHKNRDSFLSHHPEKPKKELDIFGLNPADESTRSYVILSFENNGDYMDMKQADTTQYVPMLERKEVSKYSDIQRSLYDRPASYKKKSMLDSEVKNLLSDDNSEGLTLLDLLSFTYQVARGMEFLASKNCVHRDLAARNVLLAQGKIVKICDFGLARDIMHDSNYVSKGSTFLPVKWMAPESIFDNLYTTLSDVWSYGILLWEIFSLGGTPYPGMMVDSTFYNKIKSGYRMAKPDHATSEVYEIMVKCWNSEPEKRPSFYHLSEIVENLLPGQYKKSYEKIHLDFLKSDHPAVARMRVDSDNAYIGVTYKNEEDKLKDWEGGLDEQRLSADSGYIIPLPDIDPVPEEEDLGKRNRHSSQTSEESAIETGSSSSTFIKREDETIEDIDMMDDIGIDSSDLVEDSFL
PROCEDURE_SUMMARY: Inhibitory activity against PDGF-Ra phosphorylation by PDGF-AA stimulation using G292
Format: cell-based
TEST_SETTINGS: > means inhibition at indicated concentration not more than 50%, < and << not less than 50%; read-out: PDGF (E) IC50
pIC50: −log10 of the molar value.
PROPERTY_LABEL: pIC50

COMPOUND	PROPERTY_LABEL	DATA_VALUE
COc1cc2nccc(Oc3ccc(NC(=S)NC(=O)CC4CCCCC4)cc3Cl)c2cc1OC	pIC50	7.80

P = COc1cc2ncnc(Oc3ccc(NC(=O)NC4CCN(Cc5ccccc5)CC4)c([N+](=O)[O-])c3)c2cc1OC [Example 606]
Q = COc1cc2ncnc(Oc3ccc(NC(=S)NCCCN4CCCCC4C)cc3)c2cc1OC (centres unmarked)
Query: Between P and Q , which one has the lower reported pIC50 value? Provide the label of your selected option as the answer.
Result: Q

P = CCCC(C)C(=O)NC(=S)Nc1ccc(Oc2ccnc3cc(OC)c(OC)cc23)c(Cl)c1 (centres unmarked)
Q = COc1ccccc1CCC(=O)NC(=S)Nc1ccc(Oc2ccnc3cc(OC)c(OC)cc23)cc1
Query: Between P and Q , which one has the lower reported pIC50 value? Provide the label of your selected option as the answer.
Result: P

====

EXPERIMENTAL_TARGET: PDGF-Ra (Homo sapiens, UniProt P16234)
Construct: host or cells: G-292 human osteosarcoma cells
PROCEDURE_SUMMARY: Inhibitory activity against PDGF-Ra phosphorylation by PDGF-AA stimulation using G292
Format: cell-based
TEST_SETTINGS: Pharmacological Test Example 1; > means inhibition at indicated concentration not more than 50%, < and << not less than 50%; read-out: PDGF (E) IC50
PROPERTY_LABEL: IC50 (nM)

MOLECULE	ENDPOINT_UNIT	IC50
COc1cc2nccc(Oc3ccc(NC(=O)OCCCOc4cccc(F)c4)cc3)c2cc1OC	nM	11
COc1cc2ncnc(Oc3ccc(NC(=O)OC(C)c4cccc(OC(F)(F)F)c4)cc3)c2cc1OC (stereo not shown)	nM	35
COc1cc2ncnc(Oc3ccc(NC(=O)OCC4CCCCC4)c(Cl)c3)c2cc1OC	nM	32
COc1cc2ncnc(Oc3ccc(NC(=O)OC(C)c4cccc(F)c4)c(Cl)c3)c2cc1OC (stereo not shown)	nM	12
COc1cc2nccc(Oc3cc(C)c(NC(=O)OCC4CCCCCC4)cc3C)c2cc1OC	nM	12

I = CCCOC(=O)Nc1ccc(Oc2ccnc3cc(OC)c(OC)cc23)cc1
II = CCC(OC(=O)Nc1ccc(Oc2ncnc3cc(OC)c(OC)cc23)cc1Cl)c1ccccc1 (stereo not shown)
Query: Between I and II , which one has the lower reported IC50 value? Provide the label of your selected option as the answer.
Result: I
(I: 3 nM, II: 41 nM)

a = COc1cc2ncnc(Oc3ccc(NC(=O)OCCSc4ccc(C)cc4)c(Cl)c3)c2cc1OC
b = COc1cc2ncnc(Oc3ccc(NC(=O)OCC4CC4)cc3)c2cc1OC
c = COc1cccc(COC(=O)Nc2ccc(Oc3ccnc4cc(OC)c(OC)cc34)c(C)c2C)c1
Query: Order the records by IC50, with each subsequent value no larger than the one before. Respond with the label ranking, as requested.
Result: b, a, c
(b: 74 nM, a: 36 nM, c: 10 nM)

P = COc1cc2nccc(Oc3ccc(NC(=O)OC(C)C)cc3)c2cc1OC
Q = COc1cc2ncnc(Oc3ccc(NC(=O)OC(C)c4ccc(C)cc4)c(Cl)c3)c2cc1OC (stereo not shown)
Query: Between P and Q , which one has the lower reported IC50 value? Provide the label of your selected option as the answer.
Result: P

a = COc1cc2nccc(Oc3cc(C)c(NC(=O)OC4CCc5ccccc5C4)cc3C)c2cc1OC (stereo not shown)
b = COc1cc2ncnc(Oc3ccc(NC(=O)Sc4ccc(Cl)cc4C)cc3)c2cc1OC
Query: Between a and b , which one has the lower reported IC50 value? Provide the label of your selected option as the answer.
Result: a
(a: 14 nM, b: 70 nM)

a = COc1cc2nccc(Oc3cc(C)c(NC(=O)OCc4ccc(Cl)cc4)cc3C)c2cc1OC
b = COc1cc2nccc(Oc3ccc(NC(=O)OCc4ccc(C(C)(C)C)cc4)c(C)c3C)c2cc1OC
c = COc1cc2ncnc(Oc3ccc(NC(=O)OCCN(C)C)cc3)c2cc1OC
Query: Order the records by IC50, with each subsequent value no larger than the one before. Respond with the label ranking, as requested.
Result: c, a, b

I = COc1cc2nccc(Oc3ccc(NC(=O)OCCN4CCCCC4)c(C)c3C)c2cc1OC
II = COc1cc2ncnc(Oc3ccc(NC(=O)OC4CCCC4)c(Cl)c3)c2cc1OC
Query: // pick larger IC50 from pair: I vs II Provide the label of your selected option as the answer.
Result: II
(II: 55 nM, I: 11 nM)

Hello, the source for this data is patent US7135466B2, in case you need it.
